# assayExplanation: recombinant barcode read abundance after kanamycin selection (control-corrected) (log10(CPM+1)); higher = more efficient recombination; sequences stand for … in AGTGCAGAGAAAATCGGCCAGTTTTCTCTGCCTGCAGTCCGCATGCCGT…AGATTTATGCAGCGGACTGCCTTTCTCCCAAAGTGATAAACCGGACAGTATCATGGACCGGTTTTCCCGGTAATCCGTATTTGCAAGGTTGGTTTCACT; site = the 11-nt target
recombinant barcode read abundance (log10) by entry:
valueType: recombinant barcode read abundance (log10)

>>> df
                                        seq  testresult
0  CTAAGCTCTTGGGTTCTAACCTGTTGCTC (site CTAAGCTCTTA)       0.119
1  AGGTTCCCTTGGGTTCTAACCTGTTGCTA (site AGGTTCCCTCA)      0.0107
2  CTAAGCTCTTGGGTTCTAACCTGTTGCCT (site ATAAGCTCTAG)       0.129
3  GAAATGGCTTGGGTTCTAACCTGTTGCCT (site GAAACGGCTAG)       0.237
4  TCGCCTACTTGGGTTCTAACCTGTTGCCT (site TCGCCTACTAG)       0.049
5  TGCGTAACTTGGGTTCTAACCTGTTGCCA (site TGCGTAACTTG)       0.104
6  CTAAGAACTTGGGTTCTAACCTGTTGCTT (site CTAAGAACTAG)       0.135
7  CATAGATCTTGGGTTCTAACCTGTTGCAT (site ATCTAGGCTCG)      0.0128
8  AGTCTAGCTTGGGTTCTAACCTGTTGCTA (site AGTCTAGCTTA)       0.175
9  AACGCTCCTTGGGTTCTAACCTGTTGCCT (site ACCGCTCCTAG)           0

====

# assayExplanation: recombinant UMI read abundance after kanamycin selection (control-corrected) (log10(CPM+1)); higher = more efficient recombination; extreme values may be limits of the assay; sequences stand for … in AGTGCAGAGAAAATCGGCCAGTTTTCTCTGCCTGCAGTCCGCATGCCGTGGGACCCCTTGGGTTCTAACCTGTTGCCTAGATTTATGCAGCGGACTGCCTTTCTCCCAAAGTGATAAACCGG…AGGTTGGTTTCACT; site = the 11-nt donor
valueType: recombinant UMI read abundance (log10)

>>> print(df.to_string())
                                         seq                               valuetype  testresult
 0  GGATCGACATGGACCGGTTTTCCCGGTAATCCGTATTTGCC (site GGATGGACTGG)  recombinant UMI read abundance (log10)           0
 1  CAAGTCACATGGACCGGTTTTCCCGGTAATCCGTATTTGGC (site CAAGTCACTCC)  recombinant UMI read abundance (log10)       0.402
 2  CCGTTTACATGGACCGGTTTTCCCGGTAATCCGTATTTGTT (site CCGTTTACTAT)  recombinant UMI read abundance (log10)           0
 3  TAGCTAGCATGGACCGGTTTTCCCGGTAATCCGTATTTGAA (site TAGCAAGCTTT)  recombinant UMI read abundance (log10)     0.00493
 4  TCTAGATCATGGACCGGTTTTCCCGGTAATCCGTATTTGCA (site TCTAGATCTTG)  recombinant UMI read abundance (log10)           0
 5  CCGATATCATGGACCGGTTTTCCCGGTAATCCGTATTTGTC (site CCCATATCTGA)  recombinant UMI read abundance (log10)           0
 6  GATTGTCCATGGACCGGTTTTCCCGGTAATCCGTATTTGCT (site GATTCTCCTAG)  recombinant UMI read abundance (log10)           0
 7  TTGAATTCATGGACCGGTTTTCCCGGTAATCCGTATTTGTT (site TTGAATTCTAA)  recombinant UMI read abundance (log10)           0
 8  GACAGCTCATGGACCGGTTTTCCCGGTAATCCGTATTTGTC (site GACAGCTCTGA)  recombinant UMI read abundance (log10)        1.15
 9  TTCGCCACATGGACCGGTTTTCCCGGTAATCCGTATTTGAG (site TTCGCCACTCT)  recombinant UMI read abundance (log10)           0
10  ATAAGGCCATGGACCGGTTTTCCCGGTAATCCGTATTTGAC (site ATAAGGCCTAT)  recombinant UMI read abundance (log10)       0.214
11  TGAAGAGCATGGACCGGTTTTCCCGGTAATCCGTATTTGCA (site TGAAGAGCTTG)  recombinant UMI read abundance (log10)        2.54
12  GACCTTTCATGGACCGGTTTTCCCGGTAATCCGTATTTGTT (site GACCTTTCTAA)  recombinant UMI read abundance (log10)           0
13  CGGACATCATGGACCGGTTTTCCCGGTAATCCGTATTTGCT (site CGGATATCTAG)  recombinant UMI read abundance (log10)         1.9
14  GAAACCTCATGGACCGGTTTTCCCGGTAATCCGTATTTGTG (site GAAACCTCTCA)  recombinant UMI read abundance (log10)       0.406
15  CCGATTCCATGGACCGGTTTTCCCGGTAATCCGTATTTGTT (site CGGAATCCTAA)  recombinant UMI read abundance (log10)     0.00507
16  ACGGTTTCATGGACCGGTTTTCCCGGTAATCCGTATTTGTG (site ACGGTTTCTCA)  recombinant UMI read abundance (log10)         2.4
17  CGATGCACATGGACCGGTTTTCCCGGTAATCCGTATTTGAT (site CGATGCACTAT)  recombinant UMI read abundance (log10)        2.34

====

# assayExplanation: recombinant barcode read abundance after kanamycin selection (control-corrected) (log10(CPM+1)); higher = more efficient recombination; sequences stand for … in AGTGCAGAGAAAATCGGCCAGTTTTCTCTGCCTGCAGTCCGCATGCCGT…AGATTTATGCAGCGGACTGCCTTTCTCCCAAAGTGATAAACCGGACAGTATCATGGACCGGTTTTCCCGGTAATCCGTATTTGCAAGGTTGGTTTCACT; site = the 11-nt target
The following sequences are shown together with reported recombinant barcode read abundance (log10) values.
valueType: recombinant barcode read abundance (log10)

In [3]: df
Out[3]:
                                         seq  testresult
 0  GCGGGGTCTTGGGTTCTAACCTGTTGCCT (site ACGGGGTCTAG)       0.786
 1  TCCACACCTTGGGTTCTAACCTGTTGCCT (site TCCACACCTAG)        0.63
 2  TGGTATTCTTGGGTTCTAACCTGTTGCCT (site TGGTATACTAG)      0.0539
 3  ACTTTACCTTGGGTTCTAACCTGTTGCCT (site CCTTTACCTAG)       0.324
 4  TCGTACCCTTGGGTTCTAACCTGTTGCGA (site TCGTACCCTTC)       0.617
 5  ACGCACTCTTGGGTTCTAACCTGTTGCCG (site ACGCACTCTCG)       0.646
 6  GAAGCGCCTTGGGTTCTAACCTGTTGCCT (site GAAGCGCCTAG)        1.42
 7  ACTTAGACTTGGGTTCTAACCTGTTGCCA (site ACTTAGACTCG)       0.408
 8  TCCCGAGCTTGGGTTCTAACCTGTTGCCT (site TCCCGAACTAG)       0.435
 9  GGCTGCCCTTGGGTTCTAACCTGTTGCCT (site GTCTGCCCTAG)       0.149
10  TTGAGTCCTTGGGTTCTAACCTGTTGCTA (site TTGAATCCTTG)       0.037
11  AAGTTTCCTTGGGTTCTAACCTGTTGCAT (site AAGTGTCCTAT)       0.118
12  TAAAGGCCTTGGGTTCTAACCTGTTGCTA (site TAAAGGCCTTA)       0.159
13  GTCTTATCTTGGGTTCTAACCTGTTGCCT (site GTCTAATCTAG)      0.0535
14  CGCTTACCTTGGGTTCTAACCTGTTGCCT (site AGCTTACCTAG)       0.143
15  CGTAGGTCTTGGGTTCTAACCTGTTGCCT (site CGTAGGTCTAG)       0.101
16  CTACTAACTTGGGTTCTAACCTGTTGCTT (site CTACTAACTAG)      0.0714
17  CCGTAAACTTGGGTTCTAACCTGTTGCCT (site CCGTAACCTAG)      0.0417
18  GACTGGCCTTGGGTTCTAACCTGTTGCAG (site GACTGGCCTCT)       0.862
19  GGCTGCCCTTGGGTTCTAACCTGTTGCCT (site GCCTGCCCTAG)        0.57
20  TGTCGCACTTGGGTTCTAACCTGTTGCAG (site TGTCGCACTCT)       0.313
21  GTCTGAGCTTGGGTTCTAACCTGTTGCCT (site GTCTAAGCTAG)       0.241
22  CAAACAACTTGGGTTCTAACCTGTTGCCT (site CAAACAACTAG)       0.235
23  AAGCATTCTTGGGTTCTAACCTGTTGCCT (site AAGCATTCTAG)        1.81
24  GGATACACTTGGGTTCTAACCTGTTGCGT (site GGATACACTAC)        2.76
25  TCTAATCCTTGGGTTCTAACCTGTTGCAT (site TCTAACCCTAT)      0.0519
26  TAGCTCACTTGGGTTCTAACCTGTTGCGG (site TAGCACACTCC)      0.0805
27  TAGTACGCTTGGGTTCTAACCTGTTGCAG (site TAGTACGCTCT)         1.8
28  GGCGAACCTTGGGTTCTAACCTGTTGCAT (site GGCGAACCTAT)        1.82
29  CTACCATCTTGGGTTCTAACCTGTTGCCT (site CTACCAGCTAG)       0.278
30  GGGGACCCTTGGGTTCTAACCTGTTGCGG (site GGGGACCCTTC)        1.55
31  GGGGCACCTTGGGTTCTAACCTGTTGCCT (site GGGGCACCTAT)       0.556
32  TATTCTACTTGGGTTCTAACCTGTTGCGC (site TATTCTACTCC)      0.0687
33  GAGAGGTCTTGGGTTCTAACCTGTTGCAT (site GAGAGGTCTAC)       0.435
34  CTGGGTTCTTGGGTTCTAACCTGTTGCCT (site CAGGGTTCTAG)      0.0887
35  GGTCCTACTTGGGTTCTAACCTGTTGCCT (site GATCCTACTAG)       0.241
36  CTAACCTCTTGGGTTCTAACCTGTTGCTG (site CTAACCTCTCA)        1.49
37  GAGGGAGCTTGGGTTCTAACCTGTTGCAT (site GAGTGAGCTAT)       0.315
38  TCTGGAGCTTGGGTTCTAACCTGTTGCAG (site TCTGGAGCTCT)       0.938
39  TTAGATCCTTGGGTTCTAACCTGTTGCAT (site TTAGATCCTAT)        1.62
40  ATCTTAGCTTGGGTTCTAACCTGTTGCCT (site ATCTTATCTAG)       0.197
41  CGGACGCCTTGGGTTCTAACCTGTTGCCT (site CGGACGGCTAG)        1.51
